Data provenance: patent US9624205B2

system-under-test: Y641F mutant PRC2 enzyme (EZH2 Y641F) (Homo sapiens (Human), UniProt Q15910, Y641F)
Sequence (Q15910 whole entry Y641F): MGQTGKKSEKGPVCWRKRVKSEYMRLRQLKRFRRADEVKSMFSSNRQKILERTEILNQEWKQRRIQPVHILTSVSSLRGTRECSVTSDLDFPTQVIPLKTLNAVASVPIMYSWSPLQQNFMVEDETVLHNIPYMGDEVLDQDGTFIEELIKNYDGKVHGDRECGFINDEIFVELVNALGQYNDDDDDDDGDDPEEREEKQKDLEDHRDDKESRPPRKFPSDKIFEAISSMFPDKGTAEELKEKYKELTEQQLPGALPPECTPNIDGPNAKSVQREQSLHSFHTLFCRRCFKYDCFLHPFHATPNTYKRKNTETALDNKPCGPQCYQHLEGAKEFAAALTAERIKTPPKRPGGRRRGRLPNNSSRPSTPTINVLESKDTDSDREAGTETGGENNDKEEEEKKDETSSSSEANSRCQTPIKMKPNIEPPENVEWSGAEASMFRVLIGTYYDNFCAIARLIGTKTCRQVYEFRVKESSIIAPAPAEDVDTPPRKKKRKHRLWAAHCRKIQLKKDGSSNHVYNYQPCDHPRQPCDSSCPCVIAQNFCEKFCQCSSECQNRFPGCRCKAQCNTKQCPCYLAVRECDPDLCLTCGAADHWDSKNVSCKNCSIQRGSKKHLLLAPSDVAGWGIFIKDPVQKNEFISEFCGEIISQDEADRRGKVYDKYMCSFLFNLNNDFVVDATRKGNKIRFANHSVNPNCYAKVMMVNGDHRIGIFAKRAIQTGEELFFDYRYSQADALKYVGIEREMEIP
Sequence (O75530 whole entry partner): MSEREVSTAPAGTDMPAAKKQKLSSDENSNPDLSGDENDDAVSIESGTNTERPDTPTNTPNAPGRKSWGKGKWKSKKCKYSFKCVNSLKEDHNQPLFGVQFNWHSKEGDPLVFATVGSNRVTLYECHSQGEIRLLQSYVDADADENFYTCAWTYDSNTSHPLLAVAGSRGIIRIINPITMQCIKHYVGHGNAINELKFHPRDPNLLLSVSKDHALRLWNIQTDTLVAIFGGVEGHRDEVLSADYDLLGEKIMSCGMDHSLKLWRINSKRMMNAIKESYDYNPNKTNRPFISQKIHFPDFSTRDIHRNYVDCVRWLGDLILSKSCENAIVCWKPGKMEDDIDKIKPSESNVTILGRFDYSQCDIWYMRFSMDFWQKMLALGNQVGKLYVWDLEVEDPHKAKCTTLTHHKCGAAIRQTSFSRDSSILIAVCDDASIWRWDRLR
Sequence (Q15022 whole entry partner): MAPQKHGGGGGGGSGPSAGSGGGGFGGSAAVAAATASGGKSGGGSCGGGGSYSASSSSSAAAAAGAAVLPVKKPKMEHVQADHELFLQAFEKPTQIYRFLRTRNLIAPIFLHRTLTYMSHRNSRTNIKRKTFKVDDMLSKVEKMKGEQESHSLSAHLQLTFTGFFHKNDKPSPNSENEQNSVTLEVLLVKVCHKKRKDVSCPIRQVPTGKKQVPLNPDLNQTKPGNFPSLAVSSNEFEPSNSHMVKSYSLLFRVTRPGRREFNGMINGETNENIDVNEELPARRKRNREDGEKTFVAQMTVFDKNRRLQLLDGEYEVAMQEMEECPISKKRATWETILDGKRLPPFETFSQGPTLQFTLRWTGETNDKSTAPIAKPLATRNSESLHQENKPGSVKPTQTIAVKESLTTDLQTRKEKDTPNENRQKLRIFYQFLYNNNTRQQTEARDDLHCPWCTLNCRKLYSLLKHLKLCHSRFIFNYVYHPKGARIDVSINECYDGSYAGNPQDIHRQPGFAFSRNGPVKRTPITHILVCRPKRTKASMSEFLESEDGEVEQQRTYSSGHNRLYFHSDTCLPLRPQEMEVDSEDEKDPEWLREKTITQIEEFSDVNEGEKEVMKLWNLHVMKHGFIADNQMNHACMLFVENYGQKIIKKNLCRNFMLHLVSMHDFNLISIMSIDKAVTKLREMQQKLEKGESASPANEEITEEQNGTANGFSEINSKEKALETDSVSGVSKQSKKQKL
Sequence (Q09028 whole entry partner): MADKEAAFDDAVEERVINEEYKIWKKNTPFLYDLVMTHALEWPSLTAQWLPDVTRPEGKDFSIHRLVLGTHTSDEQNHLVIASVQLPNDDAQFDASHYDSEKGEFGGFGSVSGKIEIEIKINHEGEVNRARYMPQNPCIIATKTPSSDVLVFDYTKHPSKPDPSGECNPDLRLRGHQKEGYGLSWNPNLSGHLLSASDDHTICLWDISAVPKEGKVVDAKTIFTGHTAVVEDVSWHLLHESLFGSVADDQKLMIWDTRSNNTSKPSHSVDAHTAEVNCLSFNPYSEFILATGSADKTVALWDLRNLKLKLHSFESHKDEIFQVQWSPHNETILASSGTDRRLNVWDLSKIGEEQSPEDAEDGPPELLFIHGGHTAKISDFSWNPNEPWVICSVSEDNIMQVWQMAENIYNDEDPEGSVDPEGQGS
assay-notes: PRC2 enzyme assay on peptide substrate, EZH2 Y641F mutant
test-settings: EZH2 Y641F PRC2, H3K27me2 peptide substrate
measure: pIC50
Note: pIC50 values are expressed as the negative base-10 logarithm of concentration in M.

compound | pIC50
COc1nn(C)c(C)c1CNC(=O)c1c(C)n(C(C)C2CCOCC2)c2ccccc12 (centres unmarked) | 4.55
CCC(C)n1cc(C)c2c(C(=O)NCc3c(OC)nn(C)c3C)cc(-c3ccc(N4CCNCC4)nc3)cc21 (centres unmarked) | 6.26
CCC(C)n1cc(C)c2c(C(=O)NCc3c(OC)nn(CC)c3C)cc(-c3ccc(N4CCNCC4)nc3)cc21 (centres unmarked) | 5.70

Then there is this compound:
Request: Any idea what pIC50 came out for CCC(C)n1cc(C)c2c(C(=O)NCc3c(C)n(C)[nH]c3=O)cc(-c3ccc(N4CCNCC4)nc3)cc21 (centres unmarked) on Y641F mutant PRC2 enzyme (EZH2 Y641F) (Homo sapiens (Human), UniProt Q15910, Y641F)?
Response: 5.96
